src = the Human Domainome abundance scans (Beltran et al. 2025)

B1: Formin-binding protein 4, residues 200 to 261; numbered along this chain, Q8N3X1 (parent)
chain: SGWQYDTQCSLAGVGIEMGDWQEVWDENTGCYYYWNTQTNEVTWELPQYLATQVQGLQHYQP

Variants of: B1
Experiment Summary: abundance fitness (aPCA) (normalised: wild type 0, dead -1); higher = more abundant; growth selection in yeast, the domain comes from the species named
Condition Info: Homo sapiens
Parameter Measured: abundance fitness
Kindly provide the number alone.

Mutant	Observed Value
C31S	0.031
S1P	-0.709
N36A	-0.645
S10W	-1.03
N40E	-0.04
D20Q	-0.287
E23A	-0.817
S1R	-0.236

# ---- query variant ----
Value of measured abundance fitness for the entry Y32G : -0.678
